The entries below come with measured IC50 values attached.
Biological target: Class A ESBL CTXM-15 (Escherichia coli, UniProt Q9EXV5)
Sequence (Q9EXV5 entry or part of it): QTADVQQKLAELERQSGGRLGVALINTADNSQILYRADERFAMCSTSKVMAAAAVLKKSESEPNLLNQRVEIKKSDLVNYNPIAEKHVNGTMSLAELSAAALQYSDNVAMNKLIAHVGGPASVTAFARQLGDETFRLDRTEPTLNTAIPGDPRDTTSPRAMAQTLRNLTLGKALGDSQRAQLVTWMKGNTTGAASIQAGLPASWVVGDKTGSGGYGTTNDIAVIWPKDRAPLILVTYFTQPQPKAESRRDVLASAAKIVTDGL
Assay: β-lactamase enzyme inhibition (nitrocefin hydrolysis), CTXM-15
Settings: purified enzyme; nitrocefin 100 μM, PBS pH 7.0; read-out: CTXM-15 IC50 Range

Some solved cases for reference:
>  <Molecule>
Cc1nc(-c2cccc(C(=O)N[C@@H](Cc3cccc(C(=O)O)c3O)B(O)O)c2)no1 [Example 47]

>  <Study system>
Class A ESBL CTXM-15 (Escherichia coli, UniProt Q9EXV5)

>  <Assay readout>
IC50

>  <Obs value>
< 0.01 µM

$$$$
>  <Molecule>
O=C(N[C@@H](Cc1cccc(C(=O)O)c1O)B(O)O)c1ccc(N2CCOCC2)nc1 [Example 48]

>  <Study system>
Class A ESBL CTXM-15 (Escherichia coli, UniProt Q9EXV5)

>  <Assay readout>
IC50

>  <Obs value>
< 0.01 µM

$$$$
>  <Molecule>
O=C(Cc1cc(Br)cs1)N[C@@H](Cc1cccc(C(=O)O)c1O)B(O)O [Example 9]

>  <Study system>
Class A ESBL CTXM-15 (Escherichia coli, UniProt Q9EXV5)

>  <Assay readout>
IC50

>  <Obs value>
< 0.01 µM

$$$$
>  <Molecule>
O=C(COCc1ccccc1)N[C@@H](Cc1cccc(C(=O)O)c1O)B(O)O [Example 22]

>  <Study system>
Class A ESBL CTXM-15 (Escherichia coli, UniProt Q9EXV5)

>  <Assay readout>
IC50

>  <Obs value>
< 0.01 µM

$$$$

Pending molecule:
Return value of IC50 for input O=C(N[C@@H](Cc1cccc(C(=O)O)c1O)B(O)O)c1ccncc1 [Example 55] , no commentary.
< 0.01 µM

----------
The entries below come with measured pIC50 values attached.
Molecular target: Class A ESBL CTXM-15 (Escherichia coli)
Test: β-lactamase enzyme inhibition (nitrocefin hydrolysis), CTXM-15
Settings: purified enzyme; nitrocefin 100 μM, PBS pH 7.0; read-out: CTXM-15 IC50 Range
pIC50: −log10 of the molar value.

Some solved cases for reference:
>  <Compound>
O=C(CN1C(=O)c2ccccc2C1=O)N[C@@H](Cc1cccc(C(=O)O)c1O)B(O)O [Example 45]

>  <Assay readout>
pIC50

>  <Obs value>
> 8.00

$$$$
>  <Compound>
O=C(N[C@@H](Cc1cccc(C(=O)O)c1O)B(O)O)c1ccccc1O [Example 35]

>  <Assay readout>
pIC50

>  <Obs value>
> 8.00

$$$$
>  <Compound>
O=C(N[C@@H](Cc1cccc(C(=O)O)c1O)B(O)O)c1cccs1 [Example 11]

>  <Assay readout>
pIC50

>  <Obs value>
> 8.00

$$$$

Pending compound:
Return value of pIC50 for input CC(=O)N1CCC(C(=O)N[C@@H](Cc2cccc(C(=O)O)c2O)B(O)O)CC1 [Example 49] , no commentary.
7.00 to 8.00

----------
Target: Class A ESBL SHV-5 (Klebsiella pneumoniae, UniProt P0A3M1)
Construct: made in house; host or cells: E. coli BL21(DE3) for purified enzyme; E. coli cells containing SHV-5 for extracts
Sequence (P0A3M1 22-286): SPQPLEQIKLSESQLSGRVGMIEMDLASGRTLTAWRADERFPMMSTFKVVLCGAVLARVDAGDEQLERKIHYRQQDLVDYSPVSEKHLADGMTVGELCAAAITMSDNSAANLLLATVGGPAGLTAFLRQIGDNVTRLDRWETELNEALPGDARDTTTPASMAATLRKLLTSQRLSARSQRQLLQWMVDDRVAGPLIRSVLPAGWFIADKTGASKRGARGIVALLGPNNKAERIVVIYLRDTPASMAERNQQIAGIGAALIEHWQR
Assay type: biochemical, E. coli
Conditions: purified beta-lactamase enzyme (Examples 1 and 31-64); nitrocefin 100 μM, PBS pH 7.0; read-out: SHV-5 IC50 Range
Assay readout: IC50

Some solved cases for reference:
>  <Compound>
Cn1nc(-c2ccccc2)cc1C(=O)N[C@@H](Cc1cccc(C(=O)O)c1O)B(O)O

>  <Study system>
Class A ESBL SHV-5 (Klebsiella pneumoniae, UniProt P0A3M1)

>  <IC50>
< 10 nM

$$$$
>  <Compound>
CC(=O)NCC(=O)N[C@@H](Cc1cccc(C(=O)O)c1O)B(O)O

>  <Study system>
Class A ESBL SHV-5 (Klebsiella pneumoniae, UniProt P0A3M1)

>  <IC50>
10 to 100 nM

$$$$

Pending compound:
Return value of IC50 for input O=C(N[C@@H](Cc1cccc(C(=O)O)c1O)B(O)O)c1ccccc1O , no commentary.
10 to 100 nM
